These data points were gathered from PubChem BioAssay (NCI).

# Tested on: MALME-3M melanoma
# test.details: NCI tumour cell line growth inhibition, 48 h
measured.quantity: TGI

Some molecules with known TGI results, for comparison:
{"molecule": "COC[C@@H](N=Cc1ccc([N+](=O)[O-])cc1)C(C)C", "assayed.target": "MALME-3M melanoma", "TGI": "> 100 µM"}
{"molecule": "Cc1ccc(N=Nc2c(O)ccc3ccccc23)cc1", "assayed.target": "MALME-3M melanoma", "TGI": "> 100 µM"}
{"molecule": "O=S(=O)(NCn1ccc2ccccc21)c1ccccc1", "assayed.target": "MALME-3M melanoma", "TGI": "> 100 µM"}
{"molecule": "O=c1/c(=C\\c2ccc(F)cc2)sc2n1C(c1ccc(F)cc1)C1=C(N=2)c2ccc3ccccc3c2OCC1 (stereo not given)", "assayed.target": "MALME-3M melanoma", "TGI": "> 100 µM"}
{"molecule": "CCCCCCCCCCCCCCCCCCNc1nc(=O)n(C2CC(O)C(COP(=O)(O)O)O2)cc1F (stereo not given)", "assayed.target": "MALME-3M melanoma", "TGI": "> 100 µM"}

Each of the following entries comes with a recorded value; kindly state TGI for each.
1. Cc1nc(N)c(N2CCN(CN)CC2)c(=O)[nH]1
2. O=[N+]([O-])c1cccc(N=Nc2c(O)c(S(=O)(=O)O)cc3cc(S(=O)(=O)O)ccc23)c1
3. O=C1CC(=O)n2cnc3cccc(c32)N1
4. O=C(N/N=C/C=C/c1ccccc1)c1ccccc1Nc1ccccc1C(=O)N/N=C/C=C/c1ccccc1
5. CN1CCc2c1nc(-c1ccc(Cl)cc1)c1c2N(C)CC1
6. C#Cc1c(C)c(/C=C/C(C)=C/C(=O)OC)n(C)c1C
7. COC(=O)C1C(=O)N(C)C(=O)N2CCCC12 (stereo not given)

// result
["> 100 µM", "> 100 µM", "> 100 µM", "> 100 µM", "> 100 µM", "> 100 µM", "> 100 µM"]

Each of the following entries comes with a recorded value; kindly state TGI for each.
1. O=C1OC[C@H]2[C@@H]1[C@H]1O[C@@H]2C2=C(CCC2)C1=O
2. COc1cc(C2c3cc4c(cc3C3OC[C@@H]2C3CO)OCO4)cc(OC)c1OC (stereo not given in full)
3. CN(C)c1nc2ccccc2c2c1c1c(n2Cc2ccccc2)-c2ccccc2C1=O

// result
> 100 µM
> 100 µM
> 100 µM

Each of the following entries comes with a recorded value; kindly state TGI for each.
1. Cc1ccc(S(=O)(=O)Nn2c(O)c(C#N)c(-c3ccc(Cl)cc3)c(C#N)c2=O)cc1
2. Cc1ccc(S(=O)(=O)Nc2nnc(S(N)(=O)=O)s2)cc1
3. CC(C)OP(=O)(OC(C)C)/C(N)=N/Nc1ccc([N+](=O)[O-])cc1
4. N.N.N.N.N.O=[N+]([O-])[O-].[Co+3].[O-][Cl+3]([O-])([O-])[O-]
5. COc1cc2c(cc1O)CC1c3c(cc(O)c(OC)c3-2)CCN1C (stereo not given)
6. S=c1nc(N/N=C/c2ccco2)c2cn[nH]c2[nH]1

// result
> 100 µM
> 100 µM
> 100 µM
> 100 µM
> 100 µM
> 100 µM

Each of the following entries comes with a recorded value; kindly state TGI for each.
1. CC(=O)[O-].[Mn+3].[O-]c1ccccc1C=NCCNCCN=Cc1ccccc1[O-]
2. CN1C(=O)C(O)C[C@@H]1c1ccccc1 (stereo not given in full)
3. CCOP(=O)(OCC)/C(=C/c1cccs1)CC(C)=O
4. COc1ccc(C(=O)C(CC2C(=O)NC(=O)NC2=O)c2ccc(OC)cc2)cc1 (stereo not given)

// result
1. > 100 µM
2. > 100 µM
3. > 100 µM
4. > 100 µM

* * *

# Test system: UACC-257 melanoma
# test.details: NCI tumour cell line growth inhibition, 48 h
Give measured TGI for each item. Keep answers brief.

Some compounds with known TGI results, for comparison:
{"compound": "O=C(c1ccccc1)c1c(NCC(O)CN2CCOCC2)n(Cc2ccccc2)c(=O)n(Cc2ccccc2)c1=O (stereo not drawn)", "TGI": "> 100 µM"}
{"compound": "CC(C)CCCC(C)[C@H]1CCC2[C@@H]3CCC4Nc5c(cnn5-c5ccccc5)C[C@]4(C)C3CC[C@@]21C (stereo partly drawn)", "TGI": "> 100 µM"}

Consider now this further compound.
// query // lookup TGI for "CC(=O)O[C@]1(C)OC(=O)[C@@H](CC(C)C)N1[N+](=O)[O-]"
// result > 100 µM

* * *

# System: HOP-92 NSCLC
# test.details: NCI tumour cell line growth inhibition, 48 h
Give measured TGI for each item. Keep answers brief.
Answers are plain numbers, in µM.

{"compound": "COC(=O)C1=C(C(=O)OC)C2(C)C=CC1O2 (configuration not stated)", "assayed.target": "HOP-92 NSCLC", "unit.symbol": "µM", "observed.result": 24.4}
{"compound": "CC1=Nc2ccccc2/C1=C\\c1c(C)[nH]c2ccccc12", "assayed.target": "HOP-92 NSCLC", "unit.symbol": "µM", "observed.result": 17.4}
{"compound": "C#CCn1c(=O)c(C)cn(/C(=C\\C(=O)OCC)C(=O)OCC)c1=O", "assayed.target": "HOP-92 NSCLC", "unit.symbol": "µM", "observed.result": 5.17}
{"compound": "O=C1C=CC(=O)c2c(O)c(NCCOCCO)c(Cl)c(O)c21", "assayed.target": "HOP-92 NSCLC", "unit.symbol": "µM", "observed.result": 39.4}
{"compound": "NCCOCCOCCNc1nc(-c2ccc(Cl)cc2)nc(N2CCN(c3ccccn3)CC2)n1", "assayed.target": "HOP-92 NSCLC", "unit.symbol": "µM", "observed.result": 7.57}

Consider now this further compound.
// query // lookup TGI for COc1cccc(N[C@@H]2c3cc4c(cc3C(c3cc(OC)c(O)c(OC)c3)[C@H]3C(=O)OCC32)OCO4)c1 (some centres not stated)
// result 9.33

* * *

# System: MOLT-4 leukemia
# test.details: NCI tumour cell line growth inhibition, 48 h
measured.quantity: GI50

{"compound": "C1=C2CCCC3=Cc4ccccc4OC23Oc2ccccc21", "GI50": "3.66 µM"}
{"compound": "O=c1/c(=C\\c2ccc(F)cc2)sc2n1C(c1ccc(F)cc1)C1=C(N=2)c2ccc3ccccc3c2OCC1 (configuration not stated)", "GI50": "> 100 µM"}

Each of the following entries comes with a recorded value; kindly state GI50 for each.
1. Cc1nc2c(n1C)C(=O)c1ccccc1C2=O
2. CC(C)(C)OC(=O)NCCCn1c2c(c3ccccc3c1=O)C(=O)c1ccccc1-2
3. C=C1CCC2(C#N)[C@H]3[C@H](CC[C@@H]2C)[C@@H](C)C[C@@H](CC(C)(C)NC(=O)CN2CCC2=O)[C@H]13 (some centres not stated)
4. O=c1[nH]c2nc(NC3CCOCC3)ncc2cc1Oc1ccc(F)cc1F

// result
["85 µM", "> 100 µM", "13.8 µM", "> 25 µM"]

Each of the following entries comes with a recorded value; kindly state GI50 for each.
1. Cc1nn2c(/C=C3/C(=O)Nc4cc(Cl)ccc43)c(-c3ccccc3)nc2s1
2. CSCCCNC(=O)c1ccc2c(c1)/C(=C/c1[nH]c(C)cc1C)C(=O)N2
3. Cc1c2cc(Cl)c3ccccc3c2c[n+]2ccccc12
4. Cc1ccc(S(=O)(=O)c2nc(-c3ccccc3)oc2S(C)=O)cc1 (configuration not stated)
5. O=C(c1ccccc1)c1c(NCC(O)CN2CCOCC2)n(Cc2ccccc2)c(=O)n(Cc2ccccc2)c1=O (configuration not stated)
6. Cc1nc(Nc2cccnc2)sc1C(=O)/C=C/c1ccc(Cl)cc1

// result
1. 4.11 µM
2. 1.7 µM
3. 4.5 µM
4. 2.12 µM
5. 32.4 µM
6. 3.49 µM

* * *

Give measured TGI for each item. Keep answers brief.
# Test system: CCRF-CEM leukemia
# test.details: NCI tumour cell line growth inhibition, 48 h

Some molecules with known TGI results, for comparison:
{"molecule": "COc1ccc(C(=O)C(CC2C(=O)NC(=O)NC2=O)c2ccc(OC)cc2)cc1 (stereo not drawn)", "assayed.target": "CCRF-CEM leukemia", "TGI": "> 100 µM"}
{"molecule": "S=c1nc(N/N=C/c2ccco2)c2cn[nH]c2[nH]1", "assayed.target": "CCRF-CEM leukemia", "TGI": "> 100 µM"}

Consider now this further molecule.
// query // lookup TGI for "Cc1cc(C)c2c(c1)C(=O)/C(=C/c1ccccc1C(=O)O)C2"
// result > 100 µM

* * *

Give measured TGI for each item. Keep answers brief.
# Test system: LOX IMVI melanoma
# test.details: NCI tumour cell line growth inhibition, 48 h

Some compounds with known TGI results, for comparison:
{"compound": "CC1=Nc2ccccc2/C1=C\\c1c(C)[nH]c2ccccc12", "TGI": "62.4 µM"}
{"compound": "NCC(O)CSCc1ccc(Cl)cc1 (configuration not stated)", "TGI": "> 100 µM"}
{"compound": "C=CC[n+]1c2ccccc2n2cc([N+](=O)[O-])ccc21", "TGI": "> 100 µM"}
{"compound": "O=C(Cc1ccc(Cl)c(Cl)c1)NCC1(N2CCCCC2)CCCCC1", "TGI": "> 100 µM"}
{"compound": "C1CC[N-]CC1.CC(=N\\O)/C(C)=N/O.CC(=N\\O)/C(C)=N/O.OC1[CH-]CCCC1.[Co+2]", "TGI": "> 100 µM"}

Each of the following entries comes with a recorded value; kindly state TGI for each.
1. Cc1cc2c([nH]c3ccccc32)c(O)c1-c1c(C)cc2c([nH]c3ccccc32)c1O
2. C1=C2CCCC3=Cc4ccccc4OC23Oc2ccccc21
3. Cc1c(NC(=S)NC(=O)c2ccc([N+](=O)[O-])cc2)c(=O)n(-c2ccccc2)n1C
4. O=c1oc(C(C(F)(F)F)C(F)(F)F)nc2ccccc12
5. Cc1c(-c2ccnc(N)n2)c2c(n1Cc1ccccc1)C(=O)c1ccccc1C2=O
6. CCCCCC[C@H](C)Nc1nc2ccccc2c2occc12
7. C=CCC1C(O[Si](C)(C)C(C)(C)C)C(CO[Si](C)(C)C(C)(C)C)OC1n1ccc(=O)[nH]c1=O (configuration not stated)
8. O=S(=O)(NCn1ccc2ccccc21)c1ccccc1

// result
1: 32.7 µM; 2: 28 µM; 3: > 100 µM; 4: > 100 µM; 5: 6.65 µM; 6: 21.4 µM; 7: 2.25 µM; 8: > 100 µM

Each of the following entries comes with a recorded value; kindly state TGI for each.
1. CC(C)OP(=O)(OC(C)C)/C(N)=N/Nc1ccc([N+](=O)[O-])cc1
2. CCCCCCCCCCCCCCCCCCNc1nc(=O)n(C2CC(O)C(COP(=O)(O)O)O2)cc1F (configuration not stated)
3. Cc1nn2c(/C=C3/C(=O)Nc4cc(Cl)ccc43)c(-c3ccccc3)nc2s1
4. CC1(C)CC(=O)C2(CC(CSc3ccccc3)C(CS(=O)(=O)c3ccccc3)C2)C(=O)C1 (configuration not stated)

// result
["> 100 µM", "> 100 µM", "6.02 µM", "> 100 µM"]
